The following compounds are listed with their measured CC50 values.
# Test system: MCF7
# assay-details: Cytotoxicity against human MCF7 cells by sulforhodamine B assay
# Assay type: functional
# measurement-conditions: read-out: LC50 (the source's name)

Solved cases (3 shown):
CC1=CC[C@@H]([C@@](C)(O)CCCC(C)(C)NC(=S)N/N=C\c2cccc(Cl)c2)CC1 | 45.9 µM
CC1=CC[C@@H]([C@@](C)(O)CCCC(C)(C)NC(=S)N/N=C(/C)c2ccccc2)CC1 | > 100 µM
CC1=CC[C@@H]([C@@](C)(O)CCCC(C)(C)NC(=S)N/N=C\c2ccc([N+](=O)[O-])cc2)CC1 | > 100 µM

Now look at this entry.
Please fill in: CC50 reported for CC1=CC[C@@H]([C@@](C)(O)CCCC(C)(C)NC(=S)N/N=C\c2ccccc2[N+](=O)[O-])CC1 = > 100 µM

----------
The following compounds are listed with their measured TGI values.
# assay-details: Cytotoxicity against human NCI/ADR cells by sulforhodamine B assay
# Assay type: functional
# measurement-conditions: NCI/ADR-RES

Solved cases (8 shown):
CC1=CC[C@@H]([C@@](C)(O)CCCC(C)(C)NC(=S)N/N=C\c2cccc([N+](=O)[O-])c2)CC1 | 38 µM
CC1=CC[C@@H]([C@@](C)(O)CCCC(C)(C)NC(=S)N/N=C\c2ccc([N+](=O)[O-])cc2)CC1 | > 100 µM
CC1=CC[C@@H]([C@@](C)(O)CCCC(C)(C)NC(=S)N/N=C\c2ccc(C)cc2)CC1 | 30.5 µM
CC1=CC[C@@H]([C@@](C)(O)CCCC(C)(C)NC(=S)N/N=C\c2cccc(Cl)c2)CC1 | 31.9 µM
CC1=CC[C@@H]([C@@](C)(O)CCCC(C)(C)NC(=S)N/N=C(/C)c2ccccc2)CC1 | > 100 µM
CC1=CC[C@@H]([C@@](C)(O)CCCC(C)(C)NC(=S)N/N=C\c2ccccc2Cl)CC1 | > 100 µM
CC1=CC[C@@H]([C@@](C)(O)CCCC(C)(C)NC(=S)N/N=C\c2ccc(Cl)cc2)CC1 | 36.4 µM
CC1=CC[C@@H]([C@@](C)(O)CCCC(C)(C)NC(=S)NN)CC1 | 29 µM

Please fill in: TGI reported for CC1=CC[C@@H]([C@@](C)(O)CCCC(C)(C)NC(=S)NN=C(c2ccccc2)c2ccccc2)CC1 = > 100 µM

Please fill in: TGI reported for COc1cccc2c1C(=O)c1c(O)c3c(c(O)c1C2=O)C[C@@](O)(C(=O)CO)C[C@@H]3O[C@H]1C[C@H](N)[C@H](O)[C@H](C)O1 = > 100 µM

Please fill in: TGI reported for CC1=CC[C@@H]([C@@](C)(O)CCCC(C)(C)NC(=S)N/N=C\c2ccccc2[N+](=O)[O-])CC1 = > 100 µM

Please fill in: TGI reported for COc1ccc(/C=N\NC(=S)NC(C)(C)CCC[C@](C)(O)[C@@H]2CC=C(C)CC2)cc1 = 57 µM

Please fill in: TGI reported for CC(C)=CCC[C@](C)(O)[C@@H]1CC=C(C)CC1 = > 100 µM

Please fill in: TGI reported for CC1=CC[C@@H]([C@@](C)(O)CCCC(C)(C)NC(=S)N/N=C\c2ccc(N(C)C)cc2)CC1 = > 100 µM

Please fill in: TGI reported for CC1=CC[C@@H]([C@@](C)(O)CCCC(C)(C)NC(=S)N/N=C\c2ccccc2)CC1 = 23.8 µM
